Please provide measured pKi for the entries that follow.
targetOfAssay: ABCG2 (Homo sapiens, UniProt Q9UNQ0, R482G)
protocolText: Vanadate sensitive ATPase activity in isolated membranes of ABCG2-expressing Sf9 cells
Note on pKi: it is the negative log10 of concentration, concentration in mol/L.

Fill blank: measured pKi of the molecule CCN1C(=O)C=CC1=O [NEM, N-ethylmaleimide] is ____.
5.00

Please answer likewise for COc1ccc2c3c([nH]c2c1)[C@H](C=C(C)C)N1C(=O)[C@@H]2CCCN2C(=O)[C@@H]1C3
5.89

====

targetOfAssay: ABCG2 (Homo sapiens, UniProt Q9UNQ0, R482G)
Sequence (Q9UNQ0 1-655 R482G): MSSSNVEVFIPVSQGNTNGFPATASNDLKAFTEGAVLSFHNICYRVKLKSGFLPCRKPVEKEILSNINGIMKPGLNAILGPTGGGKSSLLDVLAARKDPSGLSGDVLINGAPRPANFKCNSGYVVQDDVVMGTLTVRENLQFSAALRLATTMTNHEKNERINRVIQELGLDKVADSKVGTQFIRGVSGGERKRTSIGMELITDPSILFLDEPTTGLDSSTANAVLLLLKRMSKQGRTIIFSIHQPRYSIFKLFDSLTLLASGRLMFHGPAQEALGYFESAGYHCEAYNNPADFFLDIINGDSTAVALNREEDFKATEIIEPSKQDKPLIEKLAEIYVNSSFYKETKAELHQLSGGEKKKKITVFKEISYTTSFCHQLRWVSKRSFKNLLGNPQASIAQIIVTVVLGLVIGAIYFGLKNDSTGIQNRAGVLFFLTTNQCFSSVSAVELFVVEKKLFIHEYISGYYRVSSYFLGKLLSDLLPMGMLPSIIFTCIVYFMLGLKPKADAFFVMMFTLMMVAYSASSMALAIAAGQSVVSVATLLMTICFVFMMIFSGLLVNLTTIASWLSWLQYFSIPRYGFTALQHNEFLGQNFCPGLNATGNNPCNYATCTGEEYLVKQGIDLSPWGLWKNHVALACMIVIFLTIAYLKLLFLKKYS
protocolText: in vitro
details: human, pH 7
Experimental: FIG. 2: Comparison of the effects of various compounds on the vanadate sensitive ATPase activity in isolated Sf9 membranes of ABCG2 (FIG. 2a) or MDR1 (FIG. 2b) expressing Sf9 cells. […] The reaction mixture contained 40 mM MOPS-Tris (pH 7.0), 50 MM KCl, 2 mM dithiothreitol, 500 μM EGTA-Tris, 5 mM Na-azide, 1 mM oubain and 5-20 μg membrane protein. […] The vanadate sensitive faction was determined in the presence of 1 mM Na-orthovanadate.
Please provide measured Emax for the entries that follow.
Respond with the bare value in %.

Fill blank: measured Emax of the molecule COc1cccc2c1C(=O)c1c(O)c3c(c(O)c1C2=O)C[C@@](O)(C(=O)CO)C[C@@H]3O[C@H]1C[C@H](N)[C@H](O)[C@H](C)O1 [Doxorubicin] is ____.
30

Please answer likewise for O=C1c2c(O)ccc(O)c2C(=O)c2c(NCCNCCO)ccc(NCCNCCO)c21 [Mitoxantrone]
40

Please answer likewise for COc1cccc2c1C(=O)c1c(O)c3c(c(O)c1C2=O)C[C@@](O)(C(C)=O)C[C@@H]3O[C@H]1C[C@H](N)[C@H](O)[C@H](C)O1 [Daunorubicin]
50

====

targetOfAssay: ABCG2 (Homo sapiens, UniProt Q9UNQ0, R482G)
protocolText: Vanadate sensitive ATPase activity in isolated membranes of ABCG2-expressing Sf9 cells
details: read-out: KM ATP; without an added substrate
readout: Km

Fill blank: measured Km of the molecule Nc1ncnc2c1ncn2[C@@H]1O[C@H](COP(=O)(O)OP(=O)([O-])OP(=O)([O-])O)[C@@H](O)[C@H]1O.[Mg+2] is ____.
600 µM
